For each entry below, report its CC50 at 72 h value.
Experiment: Cytotoxicity against human THP-1 cells incubated for 72 hrs by DAPI staining based analysis
Type: toxicity, cell-based

Qu. Return reported CC50 at 72 h. Input compound: COc1cc2c(N3CCCCC3)nc(NS(C)(=O)=O)nc2cc1O
Ans. > 100 µM

Qu. Please give the documented CC50 at 72 h of COc1cc2c(N3CCCCC3)nc(NS(C)(=O)=O)nc2cc1OCc1ccccc1
Ans. > 50 µM

Qu. Read the entry COc1ccc(CNc2nc(N3CCCCC3)c3cc(OC)c(O)cc3n2)cc1 and write its reported CC50 at 72 h.
Ans. > 50 µM

Qu. Report measured CC50 at 72 h; entry is COc1cc2c(N3CCCCC3)nc(Nc3ccc(C(F)(F)F)cc3)nc2cc1OC1CCCC1
Ans. > 50 µM

Qu. Note down CC50 at 72 h recorded for COc1cc2c(N3CCCCC3)nc(Cl)nc2cc1OCc1ccccc1
Ans. > 100 µM

Qu. Fill in CC50 at 72 h for record COc1ccc(-c2cnc(NC(=O)c3ccc(F)cc3)n2C)cc1
Ans. > 50 µM

Qu. Using known records, supply CC50 at 72 h for COc1cc2c(N3CCCCC3)nc(NCc3cccc(F)c3)nc2cc1OC1CCCC1
Ans. > 3 µM
